RUN DESCRIPTION: Pharmacokinetics test in mice (plasma)
Assay type: in vivo, ICR mice
PROTOCOL CONDITIONS: ICR, mouse, plasma; mice, 2.5 mg/kg, po
READOUT KIND: Tmax (min)
Numbers only, in min.

{"columns": ["SMILES STRUCTURE", "Tmax [min]"],
 "data": [
  ["COc1ccc2cc(C=Cc3ccc(N(C)C)cc3)oc2c1", 49.8]
]}

Let us examine a further case.
Record summary for CNc1ccc(C=Cc2cc3cc(OC)ccc3o2)cc1 : reported Tmax = 49.8

* * *

Consider the following compounds; for each one, report its inhibition at 10 µM.
TARGET OR SYSTEM: beta-amyloid 42 (Aβ42) (Homo sapiens)
Construct: Beta-amyloid 42 (Aβ42) was dissolved in dimethylsulfoxide (DMSO)
RUN DESCRIPTION: Inhibitory effect on the formation of beta-amyloid fibrils in vitro (ThT fluorescence assay)
Assay type: biochemical
PROTOCOL CONDITIONS: 10 μM compound; Aβ42 25 μM; experiment of Table 6; read-out: % Inhibition (10 μM)
Counter-ions that a name gives are not always drawn.
Numbers only, in %.

{"columns": ["COMPOUND", "inhibition at 10 µM, %"],
 "data": [
  ["CNc1ccc(C=Cc2cc3cc(OCCOCCF)ccc3o2)cc1 [Compound 44]", 84.7]
]}

Here are 7 compounds. What values of inhibition at 10 µM were reported for them?
1. COc1cc(/C=C/C(=O)CC(=O)/C=C/c2ccc(O)c(OC)c2)ccc1O [curcumin, reference compound]
2. CNc1ccc(C=Cc2cc3cc(Cl)ccc3o2)cc1 [Compound 30]
3. COc1ccc2cc(/C=C/c3ccc(N(C)C)cc3)oc2c1 [hydrochloride of Ex. 9]
4. CNc1ccc(C=Cc2cc3cc(I)ccc3o2)cc1OC [Compound 48]
5. CNc1ccc(/C=C/c2cc3cc(OC)ccc3o2)cc1 [hydrochloride of Ex. 17]
6. COc1ccc2cc(C=Cc3ccc(OC)c(OC)c3)oc2c1 [Compound 59]
7. CNc1ccc(C=Cc2cc3cc(I)ccc3o2)cc1 [Compound 46, 5-iodo-2-(4-methylaminostyryl)benzofuran]

Out:
[98.1, 68.4, 62.9, 74.2, 74.1, 79.9, 61]

Each compound below has a reported value. Please supply its inhibition at 10 µM.
1. CNc1ccc(C=Cc2cc3cc(C)ccc3o2)cc1 [Compound 40, trifluoroacetate]
2. COc1ccc(C=Cc2cc3cc(OC)c(OC)cc3o2)cc1 [Compound 54]

Out:
1. 73.5
2. 77.8

* * *

TARGET OR SYSTEM: beta-amyloid 42 (Aβ42) (Homo sapiens, UniProt P05067)
Construct: Beta-amyloid 42 (Aβ42) was dissolved in dimethylsulfoxide (DMSO)
Sequence (P05067 672-713 limits assumed): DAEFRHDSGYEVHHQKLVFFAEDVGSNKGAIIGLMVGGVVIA
RUN DESCRIPTION: Inhibitory effect on the formation of beta-amyloid fibrils in vitro (ThT fluorescence assay)
Format: biochemical
PROTOCOL CONDITIONS: 10 μM compound; Aβ42 25 μM; experiment of Table 5; read-out: % Inhibition (10 μM)
I'd appreciate it if you could supply inhibition at 10 µM values for the items below.

{"columns": ["COMPOUND", "TARGET OR SYSTEM", "inhibition at 10 µM"],
 "data": [
  ["CNc1ccc(C=Cc2cc3cc(OC)c(OC)cc3o2)cc1", "beta-amyloid 42 (Aβ42) (Homo sapiens, UniProt P05067)", "25.8%"],
  ["CNc1ccc(C=Cc2cc3cc(OCCOCCOCCF)ccc3o2)cc1", "beta-amyloid 42 (Aβ42) (Homo sapiens, UniProt P05067)", "53.5%"]
]}

Each compound below has a reported value. Please supply its inhibition at 10 µM.
1. CCN(CC)c1ccc(C=Cc2cc3cc(I)ccc3o2)cc1
2. COc1ccc(C=Cc2cc3ccc(C)cc3o2)cc1OC
3. COc1ccc(C=Cc2cc3cc(OC)c(OC)cc3o2)cc1OC

Out:
1: 63.3%; 2: 67.5%; 3: 51.4%

Your task in this section: give inhibition at 10 µM for each listed record.
1. CNc1ccc(C=Cc2cc3ccc(O)cc3o2)cc1
2. COc1cc(/C=C/C(=O)CC(=O)/C=C/c2ccc(O)c(OC)c2)ccc1O [curcumin, reference compound]

Out:
1. 61.9%
2. 67.8%

Batch request: inhibition at 10 µM for each of the following compounds.
1. CNc1ccc(C=Cc2cc3ccc(OCCOCCOCCF)cc3o2)cc1
2. COc1ccc(C=Cc2cc3ccccc3o2)cc1OC
3. Nc1ccc(C=Cc2cc3ccc(O)cc3o2)cc1 [Compound 67, 6-hydroxy-2-(4-aminostyryl)benzofuran]
4. COc1cc2cc(C=Cc3ccc(N(C)C)cc3)oc2cc1OC
5. CCN(CC)c1ccc(C=Cc2cc3ccc(O)cc3o2)cc1
6. CNc1ccc(C=Cc2cc3cc(OC)c(OC)cc3o2)cc1OC
7. CNc1ccc(C=Cc2cc3cc(OC)ccc3o2)cc1OC

Out:
["61.7%", "67.4%", "60.2%", "29.2%", "42.2%", "56.2%", "24.5%"]

Look at each compound and report its inhibition at 10 µM.
1. CNc1ccc(C=Cc2cc3cc(Cl)ccc3o2)cc1OC
2. CCN(CC)c1ccc(C=Cc2cc3cc(OC)c(OC)cc3o2)cc1

Out:
1. 47.6%
2. 42.3%

* * *

TARGET OR SYSTEM: beta-amyloid 42 (Aβ42) (Homo sapiens, UniProt P05067)
Construct: Beta-amyloid 42 (Aβ42) was dissolved in dimethylsulfoxide (DMSO)
RUN DESCRIPTION: Inhibitory effect on the formation of beta-amyloid fibrils in vitro (ThT fluorescence assay)
Assay type: biochemical
PROTOCOL CONDITIONS: Tables 1 to 6, relative to curcumin
Experimental: In order to investigate the inhibitory effect on the formation of beta-amyloid fibrils, the inventive compounds were examined as follows: Beta-amyloid 42 (Aβ42) was dissolved in dimethylsulfoxide (DMSO) to form a 250 mM Aβ42 stock solution. […] 45 μL of PBS (phosphate buffer saline, pH 7.4) was added to each of a 96 well fluorescence microplate (white, F-bottom). […] A (control group): fluorescence intensity in a group treated with PBS solution, Aβ42, and DMSO […]
READOUT KIND: % inhibition against the beta-amyloid 42 formation compared with curcumin

{"columns": ["SMILES STRUCTURE", "RESULT VALUE"],
 "data": [
  ["CN(C)c1ccc(C=Cc2cc3cc(O)ccc3o2)cc1", "superior % inhibition"],
  ["CNc1ccc(C=Cc2cc3cc(OCCOCCF)ccc3o2)cc1", "superior % inhibition"],
  ["CN(C)c1ccc(C=Cc2cc3cc(Br)ccc3o2)cc1", "superior % inhibition"]
]}

* * *

TARGET OR SYSTEM: beta-amyloid 42 (Aβ42) (Homo sapiens, UniProt P05067)
Construct: Beta-amyloid 42 (Aβ42) was dissolved in dimethylsulfoxide (DMSO)
RUN DESCRIPTION: Inhibitory effect on the formation of beta-amyloid fibrils in vitro (ThT fluorescence assay)
Format: biochemical
PROTOCOL CONDITIONS: In vitro ThT analysis (Aβ42: 25 μM); experiment of Table 5
Record form. Attribute: IC50. Fill in for each entry.
One number for each entry, in nM.

Solved entries (count: 2):
{"columns": ["COMPOUND", "TARGET OR SYSTEM", "RESULT VALUE"],
 "data": [
  ["CCN(CC)c1ccc(C=Cc2cc3cc(I)ccc3o2)cc1 [Compound 47]", "beta-amyloid 42 (Aβ42) (Homo sapiens, UniProt P05067)", 1050],
  ["COc1ccc(C=Cc2cc3ccccc3o2)cc1OC [Compound 28, 2-(3,4-dimethoxystyryl)benzofuran]", "beta-amyloid 42 (Aβ42) (Homo sapiens, UniProt P05067)", 3290]
]}

// moving on: another record for IC50
Sure, the documented IC50 for COc1ccc(C=Cc2cc3ccc(C)cc3o2)cc1OC [Compound 65] is 884

* * *

RUN DESCRIPTION: Pharmacokinetics test in mice (plasma)
Format: in vivo, ICR mice
PROTOCOL CONDITIONS: ICR, mouse, plasma; mice, 2.5 mg/kg, po, n = 3
READOUT KIND: AUC (ng·h/mL)
Answers are plain numbers, in ng·h/mL.

{"columns": ["COMPOUND", "RESULT VALUE"],
 "data": [
  ["COc1ccc2cc(C=Cc3ccc(N(C)C)cc3)oc2c1 [Compound 9]", 646]
]}

Now take the following compound into account.
Recorded AUC (compound CNc1ccc(C=Cc2cc3cc(OC)ccc3o2)cc1 [Compound 17] ): 326

* * *

TARGET OR SYSTEM: beta-amyloid 42 (Aβ42) (Homo sapiens, UniProt P05067)
Construct: Beta-amyloid 42 (Aβ42) was dissolved in dimethylsulfoxide (DMSO)
RUN DESCRIPTION: Inhibitory effect on the formation of beta-amyloid fibrils in vitro (ThT fluorescence assay)
Format: biochemical
PROTOCOL CONDITIONS: In vitro ThT analysis (Aβ42: 25 μM); experiment of Table 7
Field: IC50. Provide a value for each of the compounds that follow.
Numbers only, in nM.

Example results:
{"columns": ["COMPOUND", "IC50 [nM]"],
 "data": [
  ["CN(C)c1ncc(/C=C/c2nc3ccccc3o2)s1 [Comparative Example 1, reference compound]", 3400],
  ["CNc1ccc(C=Cc2cc3cc(OC)ccc3o2)cc1", 725],
  ["COc1ccc2cc(C=Cc3ccc(N(C)C)cc3)oc2c1", 972]
]}

Attention now turns to another entry.
Record CN(C)c1ccc(/C=C/c2nc3ccccc3s2)cc1 [Comparative Example 2, reference compound] , field IC50: 31800
